# ΔH values compiled below
# system_name: EcwtSC (Escherichia coli)
# Sequence (P0A988 whole entry): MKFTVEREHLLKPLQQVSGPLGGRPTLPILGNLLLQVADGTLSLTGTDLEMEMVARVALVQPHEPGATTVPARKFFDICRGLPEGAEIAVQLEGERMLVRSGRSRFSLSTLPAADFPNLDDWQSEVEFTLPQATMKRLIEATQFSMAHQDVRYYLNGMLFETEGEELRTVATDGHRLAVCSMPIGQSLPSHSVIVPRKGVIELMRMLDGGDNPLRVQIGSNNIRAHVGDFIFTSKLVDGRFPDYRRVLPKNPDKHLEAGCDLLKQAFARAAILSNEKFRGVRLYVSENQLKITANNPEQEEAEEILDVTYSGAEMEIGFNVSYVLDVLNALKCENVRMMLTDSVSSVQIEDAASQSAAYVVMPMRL
# protocol_details: Isothermal Titration Calorimetry (ITC/kinITC), wild-type sliding clamp
# Type: binding, E. coli
# measurement_setup: R1 buffer, 25 °C (298.15K)
Square brackets hold non-standard residues; d marks the D form. Peptide text beside a SMILES is read from it. * marks the point of attachment. Cha = N[C@@H](CC1CCCCC1)C(=O)O; Crotonyl(E) = C/C=C/C(=O)*; Dap = NC[C@H](N)C(=O)O; Acryloyl = C=CC(=O)*; ClAc = O=C(CCl)*; X1 = CC#CC(=O)*
experimental_readout: ΔH

{"columns": ["compound", "result"],
 "data": [
  ["CC(=O)N[C@@H](CCC(N)=O)C(=O)N[C@@H](CC1CCCCC1)C(=O)N[C@@H](CNC(=O)CCl)C(=O)N[C@@H](CC(C)C)C(=O)N[C@@H](Cc1ccccc1)C(=O)O [Peptide 2] (Ac-Q[Cha][Dap](ClAc)LF-OH)", "-11.7 (± 0.4) kcal/mol"],
  ["C/C=C/C(=O)NC[C@H](NC(=O)[C@H](CC1CCCCC1)NC(=O)[C@H](CCC(N)=O)NC(C)=O)C(=O)N[C@@H](CC(C)C)C(=O)N[C@@H](Cc1ccccc1)C(=O)O [Peptide 3, Ac-Gln-Cha-Dap(but-2-enamide)-Leu-Phe-OH] (Ac-Q[Cha][Dap](Crotonyl(E))LF-OH)", "-10.4 (± 0.1) kcal/mol"],
  ["CC#CC(=O)NC[C@H](NC(=O)[C@H](CC1CCCCC1)NC(=O)[C@H](CCC(N)=O)NC(C)=O)C(=O)N[C@@H](CC(C)C)C(=O)N[C@@H](Cc1ccccc1)C(=O)O [Peptide 5, Ac-Gln-Cha-Dap(but-2-ynamide)-Leu-Phe-OH] (Ac-Q[Cha][Dap](X1)LF-OH)", "-11.8 (± 0.06) kcal/mol"],
  ["C=CC(=O)NC[C@H](NC(=O)[C@H](CC1CCCCC1)NC(=O)[C@H](CCC(N)=O)NC(C)=O)C(=O)N[C@@H](CC(C)C)C(=O)N[C@@H](Cc1ccccc1)C(=O)O [Peptide 1, Ac-Gln-Cha-Dap(acrylamide)-Leu-Phe-OH] (Ac-Q[Cha][Dap](Acryloyl)LF-OH)", "-12.8 (± 0.08) kcal/mol"]
]}

Cited source: patent EP4445957A1
